B1: ADAMTSL2 (parent)
chain: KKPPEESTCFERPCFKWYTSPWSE

Variants of: B1
Assay: protein stability index of a GFP-peptide fusion (GPS, HEK-293T) (PSI 1-6); higher = more stable;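 note: lentivirally expressed fusions sorted by FACS into six bins by GFP to DsRed ratio, PSI derived from sequencing read proportions per bin multiplied by bin number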
Details: c terminus: a fixed tail appended
MEASUREMENT_NAME: protein stability index
Output: the number by itself.

For record "K1T" the listed protein stability index is 2.52

For record "F10K" the listed protein stability index is 3.55

For record "P13V" the listed protein stability index is 1.96
